This collection of values is drawn from paper PMC9655874.

- tested_target: cysteine protease of R. ferrugineus midgut
- assay_name: Cysteine proteinase activity (in vitro)
- Type: biochemical, Rhynchophorus ferrugineus
- setup_conditions: 4th instar midgut homogenate
Cut-off 200 µg/mL on IC50 cysteine protease (in vitro): below means rule met, at or above means rule not met.

Example cases with answers are listed next.
- compound: "C=CC(C)(O)CCC=C(C)C (stereo not shown)"
  tested_target: "cysteine protease of R. ferrugineus midgut"
  assigned_class: "rule met"
- compound: "C=CC(=C)CCC=C(C)CCC=C(C)C"
  tested_target: "cysteine protease of R. ferrugineus midgut"
  assigned_class: "rule met"
- compound: "C=C(C)C1CCC(C)(O)CC1 (stereo not shown)"
  tested_target: "cysteine protease of R. ferrugineus midgut"
  assigned_class: "rule not met"
- compound: "C=C(C)C1CCC(C)C2=C(C1)C(C)CC2 (stereo not shown)"
  tested_target: "cysteine protease of R. ferrugineus midgut"
  assigned_class: "rule not met"
- compound: "C=C1CCC2CC1C2(C)CCC=C(C)C (stereo not shown)"
  tested_target: "cysteine protease of R. ferrugineus midgut"
  assigned_class: "rule met"

Kindly consider the entry below.
Quick check: does C=CCc1ccc(O)c(OC)c1 have IC50 cysteine protease (in vitro) under 200 µg/mL?
rule not met

====

- Tested on: trypsin proteinase of R. ferrugineus midgut
- assay_name: Trypsin activity in midgut of treated larvae (in vivo)
- setup_conditions: larvae treated 24 h, midgut preparation
measured_endpoint: IC50 trypsin proteinase (in vivo) (µg/mL)
Give bare numbers, in µg/mL.

Some entries whose results are on file:
- compound: "C=C(C)C1CCC(C)C2=C(C1)C(C)CC2 (stereo not drawn) [α-guaiene]"
  meas_value: 454.4
- compound: "C=CC(=C)CCC=C(C)CCC=C(C)C [β-farnesene]"
  meas_value: 425.8
- compound: "C=CCc1ccc(O)c(OC)c1 [eugenol]"
  meas_value: 612.8
- compound: "C=C(C)C1CCC(C)(O)CC1 (stereo not drawn) [β-terpineol]"
  meas_value: 237.1
- compound: "C=C1CCC2CC1C2(C)CCC=C(C)C (stereo not drawn) [β-bergamotene]"
  meas_value: 284.5

Batch: IC50 trypsin proteinase (in vivo) for all items listed.
1. C=CCc1ccc(OC)cc1 [estragole]
2. CC(C)=CCC/C(C)=C\CO [nerol]
3. CC1=CCC(C(C)C)=CC1 [γ-terpinene]
4. C=CC(C)(O)CCC=C(C)C (stereo not drawn) [linalool]

[628.7, 186.3, 594.1, 137.5]

====

- System: elastase of R. ferrugineus midgut
- assay_name: Elastase activity in midgut of treated larvae (in vivo)
- Set-up: species or system Rhynchophorus ferrugineus
- setup_conditions: larvae treated 24 h, midgut preparation
measured_endpoint: IC50 elastase (in vivo) (µg/mL)
Give bare numbers, in µg/mL.

Answered cases to consult:
- compound: "CC1=CCC(C(C)C)=CC1"
  IC50 elastase (in vivo), µg/mL: 315.8
- compound: "C=CCc1ccc(O)c(OC)c1"
  IC50 elastase (in vivo), µg/mL: 346.8
- compound: "C=C(C)C1CCC(C)(O)CC1 (centres unmarked)"
  IC50 elastase (in vivo), µg/mL: 239.4
- compound: "C=CC(C)(O)CCC=C(C)C (centres unmarked)"
  IC50 elastase (in vivo), µg/mL: 217.2

Which IC50 elastase (in vivo) value is on record for CC12CCC(CC1)C(C)(C)O2 ?
256.3
